This collection of values is drawn from PubChem BioAssay AID1159580.

test: chemical genetic growth profiling, strain panel (AID 1159580);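 further: tested at 20 µM; growth read once vehicle control cultures reached saturation at 30 °C; 1 = growth at the plate median or of vehicle wells; lower values mean less growth of the strain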; details: S. cerevisiae deletion strains, growth OD, locus YMR223W, strain ubp8, active compounds read low
Among all 5,500 compounds or so, about 2,000 (36%) were called active. Roughly 18% stayed inconclusive and do not appear here. Some of the results follow.
Overview of recorded normalized growth for various compounds
OBSERVED PROPERTY: normalized growth

1) CC(=O)c1c(O)c(C)c(O)c2c1OC1=CC(=O)C(C(C)=O)C(=O)C12C (centres undefined) | 0.958
2) CC(=O)OC1CC(OC(C)=O)C2(C)C(CC(OC(C)=O)C3(C)C2CCC2(C)C(c4ccoc4)CC4OC423)C1(C)C (centres undefined) | 1.01
3) CCN(CC)CCOc1ccc2c(c1)C(=O)c1cc(OCCN(CC)CC)ccc1-2 | 0.982
4) C/C=C/c1ccc2c(c1)OCO2 | 0.99
5) O=C(O)CCCCC1CCSS1 (centres undefined) | 0.948
6) CC1(C)C(=O)C=CC2(C)C3CCC4(C)C(c5ccoc5)CC5OC54C3C(O)CC12 (centres undefined) | 0.993
7) COc1cc(C(=O)NCc2ccc(OCCN(C)C)cc2)cc(OC)c1OC | 1.03
8) CC(=O)O[C@@H]1CC2C(C)(C)C=CC(=O)[C@]2(C)C2CC[C@@]3(C)[C@H](c4ccoc4)OC(=O)C4OC43[C@@]21C (some centres undefined) | 0.997
9) CC(=O)O[C@@H]1C[C@@]2(C)[C@H](c3ccoc3)C[C@H]3O[C@]32[C@]2(C)C(=O)C(O)=C3C(C)(C)C(=O)C=C[C@]3(C)C12 (some centres undefined) | 0.922
